The measured values listed here are drawn from patent US11198713B2.

The following compounds are listed with their measured EC50 values.
Target: full-length beta-catenin (Axin site) (Homo sapiens, UniProt P35222)
Construct: 15 nM full-length beta-catenin, 20 nM FITC labeled peptide in buffer
Sequence (P35222 whole entry): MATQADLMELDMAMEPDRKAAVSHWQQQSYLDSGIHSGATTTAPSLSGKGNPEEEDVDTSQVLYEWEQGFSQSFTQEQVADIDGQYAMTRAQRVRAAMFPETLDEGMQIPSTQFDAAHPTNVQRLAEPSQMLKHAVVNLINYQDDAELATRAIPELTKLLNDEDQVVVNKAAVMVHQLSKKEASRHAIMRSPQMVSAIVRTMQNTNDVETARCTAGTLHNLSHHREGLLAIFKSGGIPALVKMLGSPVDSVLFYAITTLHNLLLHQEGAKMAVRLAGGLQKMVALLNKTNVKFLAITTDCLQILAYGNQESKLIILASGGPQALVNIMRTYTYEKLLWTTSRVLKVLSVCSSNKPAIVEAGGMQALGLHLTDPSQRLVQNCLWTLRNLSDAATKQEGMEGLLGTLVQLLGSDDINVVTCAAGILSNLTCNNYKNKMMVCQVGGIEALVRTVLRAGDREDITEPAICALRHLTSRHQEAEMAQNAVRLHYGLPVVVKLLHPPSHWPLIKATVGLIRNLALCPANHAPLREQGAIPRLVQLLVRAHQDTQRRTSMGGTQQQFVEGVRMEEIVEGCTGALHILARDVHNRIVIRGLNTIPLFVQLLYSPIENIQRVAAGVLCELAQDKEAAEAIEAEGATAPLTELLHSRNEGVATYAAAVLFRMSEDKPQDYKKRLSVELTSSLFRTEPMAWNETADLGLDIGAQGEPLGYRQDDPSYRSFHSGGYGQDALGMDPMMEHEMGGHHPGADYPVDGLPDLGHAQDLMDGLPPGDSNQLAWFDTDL
Test: Competition fluorescence polarization assay (Axin site probe)
Format: binding
Details: competition fluorescence polarization, Table 2; read-out: in vitro FP EC50
Protocol: FIG. 1. […] Peptide solutions were prepared in buffer (50 mM Tris pH 8.0, 250 mM NaCl, 2% glycerol, 0.5 mM EDTA, 0.02% w/v sodium azide) using a 3-fold serial dilution from 5 μM. […] Equal volume of the titrated peptide was added to the plate and incubated protected from light for 15 minutes prior to read. Reads were performed on a Spectramax M5 (Molecular Devices) in duplicate. FIG. 7. […] Reads were performed on a Spectramax M5 (Molecular Devices) in duplicate. […]
Numbered stars: 1 amine (or outer) side, 2 acyl side, 3 side chain; on linkers, the order of the positions; unused ones are H or OH. Bridge positions count the residues as written; N and C are the ends. Square brackets hold non-standard residues; d marks the D form. Peptide text beside a SMILES is read from it. X10 = CN(CC=[*:3])C[C@@](C)(N[*:1])C(=O)[*:2]; X8 = CN(CC=[*:3])CCC[C@](C)(N[*:1])C(=O)[*:2]; X9 = C[C@](CCC=[*:3])(N[*:1])C(=O)[*:2]; S8 = C=CCCCCCC[C@](C)(N)C(=O)O; Aib = CC(C)(N)C(=O)O

COMPOUND	EC50
CC[C@H](C)[C@@H]1NC(=O)[C@H](Cc2c[nH]cn2)NC(=O)[C@H](C)NC(=O)[C@H](CC(=O)O)NC(=O)[C@H](CC(C)C)NC(=O)[C@H]([C@@H](C)CC)NC(=O)[C@](C)(NC(=O)[C@H](C)NC(C)=O)CCCCCCC=CCCC[C@@](C)(C(=O)N[C@@H](CCCNC(=N)N)C(=O)N[C@H](C(=O)N[C@@H](Cc2c[nH]c3ccccc23)C(N)=O)C(C)C)NC1=O (single isomer, unassigned) [FP0217s Isomer 1, Ac-A-R8-I-L-D-A-H-I-S5-R-V-W-NH2]	< 100 nM
CC[C@H](C)[C@@H]1NC(=O)[C@H](Cc2c[nH]cn2)NC(=O)[C@H](C)NC(=O)[C@H](CC(=O)O)NC(=O)[C@H](CC(C)C)NC(=O)[C@H]([C@@H](C)CC)NC(=O)[C@](C)(NC(=O)[C@H](C)NC(C)=O)CCC=CCN(C)CCC[C@@](C)(C(=O)N[C@@H](CCCNC(=N)N)C(=O)N[C@H](C(=O)N[C@@H](Cc2c[nH]c3ccccc23)C(N)=O)C(C)C)NC1=O [FP0509a, Ac-A-R4-I-L-D-A-H-I-MH-R-V-W-NH2] (Ac-A[X9]ILDAHI[X8]RVW-NH2; staple 2-9)	500 to 5000 nM
CC[C@H](C)[C@@H]1NC(=O)[C@H](Cc2c[nH]cn2)NC(=O)[C@H](C)NC(=O)[C@H](CC(=O)O)NC(=O)[C@H](CC(C)C)NC(=O)[C@H]([C@@H](C)CC)NC(=O)[C@](C)(NC(=O)[C@H](C)NC(C)=O)CCCCCCC=CCOC(=O)N2CC[C@@](C(=O)N[C@@H](Cc3cccc4ccccc34)C(=O)N[C@H](C(=O)N[C@@H](Cc3c[nH]c4ccccc34)C(N)=O)C(C)C)(C2)NC1=O (single isomer, unassigned) [FP0365c Isomer 1, Ac-A-R8-I-L-D-A-H-I-MB-1NapA-V-W-NH2]	500 to 5000 nM
CC[C@H](C)[C@H](NC(=O)[C@H](Cc1c[nH]cn1)NC(=O)[C@H](C)NC(=O)[C@H](CC(=O)O)NC(=O)[C@H](CC(C)C)NC(=O)[C@@H](NC(=O)C(C)(C)NC(=O)[C@H](C)NC(C)=O)[C@@H](C)CC)C(=O)NC(C)(C)C(=O)N[C@@H](CCCNC(=N)N)C(=O)N[C@H](C(=O)N[C@@H](Cc1c[nH]c2ccccc12)C(N)=O)C(C)C [FP0628_aib, Ac-A-Aib-I-L-D-A-H-I-Aib-R-V-W-NH2] (Ac-A[Aib]ILDAHI[Aib]RVW-NH2)	100 to 500 nM
CC[C@H](C)[C@@H]1NC(=O)[C@H](Cc2c[nH]cn2)NC(=O)[C@H](C)NC(=O)[C@H](CC(=O)O)NC(=O)[C@H](CC(C)C)NC(=O)[C@H]([C@@H](C)CC)NC(=O)[C@](C)(NC(=O)[C@H](C)NC(C)=O)CCCCCCC=CCOC(=O)N(C)C[C@@](C)(C(=O)N[C@@H](CCCNC(=N)N)C(=O)N[C@H](C(=O)N[C@@H](Cc2c[nH]c3ccccc23)C(N)=O)C(C)C)NC1=O [FP0338c, Ac-A-R8-I-L-D-A-H-I-MD-R-V-W-NH2]	100 to 500 nM

Note: attention shifts to another entry.
EC50 reported for this compound CC[C@H](C)[C@@H]1NC(=O)[C@H](Cc2c[nH]cn2)NC(=O)[C@H](C)NC(=O)[C@H](CC(=O)O)NC(=O)[C@H](CC(C)C)NC(=O)[C@H]([C@@H](C)CC)NC(=O)[C@](C)(NC(=O)[C@H](C)NC(C)=O)CN(C)CC=CCCCCCC[C@@](C)(C(=O)N[C@@H](CCCNC(=N)N)C(=O)N[C@H](C(=O)N[C@@H](Cc2c[nH]c3ccccc23)C(N)=O)C(C)C)NC1=O [FP0335a, Ac-A-ME-I-L-D-A-H-I-S8-R-V-W-NH2] (Ac-A[X10]ILDAHI[S8]RVW-NH2; staple 2-9) : 100 to 500 nM
